The following molecules are shown together with reported MIC values.
system: Enterococcus faecalis ATCC 19433; assay: Agar plate dilution method, MIC; type: cell-based; conditions: ATCC19433; Enterococcus faecalis ATCC 19433, 10% horse serum-added MH agar, overnight

The examples below pair each entry with its known result.
CC1(C)S[C@@H]2[C@H](NC(=O)[C@H](N)c3ccc(O)cc3)C(=O)N2[C@H]1C(=O)O
0.39 µg/mL
O=C1c2ccc3c4c(ccc(c24)C(=O)N1c1ccccn1)C(=O)N(c1ccccn1)C3=O
> 25 µg/mL
CC[C@H]1OC(=O)[C@H](C)[C@@H](O[C@H]2C[C@@](C)(OC)[C@@H](O)[C@H](C)O2)[C@H](C)[C@@H](O[C@@H]2O[C@H](C)C[C@H](N(C)C)[C@H]2O)[C@](C)(OC)C[C@@H](C)C(=O)[C@H](C)[C@@H](O)[C@]1(C)O
> 25 µg/mL

# context switch: different molecule, same MIC
Prompt: Field request: MIC | item: `Cc1ncc([N+](=O)[O-])n1CCO`
Completion: > 25 µg/mL

* * *

Tested on: Streptococcus pneumoniae SR-1003
Test: Agar plate dilution method, MIC
Format: cell-based
Conditions: SR1003; Streptococcus pneumoniae SR-1003, 10% horse serum-added MH agar, overnight
Description: Firstly, the thus-synthesized compound of the present invention (2) was studied for its activity in vitro. For antibacterial activity, an agar plate dilution method was employed. The agar plate dilution method is well known in the art. […]
measuredAttribute: MIC (µg/mL)
Lab book: enter the figure in µg/mL, no units written.

CC[C@H]1OC(=O)[C@H](C)[C@@H](O[C@H]2C[C@@](C)(OC)[C@@H](O)[C@H](C)O2)[C@H](C)[C@@H](O[C@@H]2O[C@H](C)C[C@H](N(C)C)[C@H]2O)[C@](C)(OC)C[C@@H](C)C(=O)[C@H](C)[C@@H](O)[C@]1(C)O [Clarithromycin, clarithromycin]
0.0125

Now turn to the next compound.
Prompt: Which MIC value belongs to CC1(C)S[C@@H]2[C@H](NC(=O)[C@H](N)c3ccc(O)cc3)C(=O)N2[C@H]1C(=O)O [Amoxicillin, amoxicillin] ?
Completion: 0.05

* * *

test system: Helicobacter pylori SS1; test: Agar plate dilution method, MIC; assay type: cell-based; settings: 96 h; Helicobacter pylori SS1, BHI agar with 7% horse blood, 4 days
A collection of compounds and their measured MIC
Answer format: numeric, µg/mL implied, no suffix.

Prompt: Fill blank: measured MIC of the compound `O=C1c2ccc3c4c(ccc(c24)C(=O)N1c1ccccn1)C(=O)N(c1ccccn1)C3=O` is ____.
Completion: 0.1

* * *

tested on: Helicobacter pylori ATCC 43504; experiment: Agar plate dilution method, MIC; type: cell-based; conditions: ATCC43504, 96 h; Helicobacter pylori ATCC 43504, BHI agar with 7% horse blood, 4 days
// MIC lookup, one value per entry
// return numeric value only (unit: µg/mL, not printed)

CN1C(=O)c2ccc3c4c(ccc(c24)C1=O)C(=O)N(C)C3=O
6.25
CC1(C)S[C@@H]2[C@H](NC(=O)[C@H](N)c3ccc(O)cc3)C(=O)N2[C@H]1C(=O)O
0.025
O=C1c2ccc3c4c(ccc(c24)C(=O)N1c1ccccn1)C(=O)N(c1ccccn1)C3=O
0.2

Prompt: Find MIC (Helicobacter pylori ATCC 43504) for the entry `O=C1c2ccc3c4c(ccc(c24)C(=O)N1c1nccs1)C(=O)N(c1nccs1)C3=O`
Completion: 2.5

* * *

system: Helicobacter pylori SS1; assay: Agar plate dilution method, MIC; type: cell-based; conditions: 96 h; Helicobacter pylori SS1, BHI agar with 7% horse blood, 4 days
measuredAttribute: MIC (µg/mL)
Supply the numeric figure in µg/mL, leaving out any unit text.

CC[C@H]1OC(=O)[C@H](C)[C@@H](O[C@H]2C[C@@](C)(OC)[C@@H](O)[C@H](C)O2)[C@H](C)[C@@H](O[C@@H]2O[C@H](C)C[C@H](N(C)C)[C@H]2O)[C@](C)(OC)C[C@@H](C)C(=O)[C@H](C)[C@@H](O)[C@]1(C)O
0.025

Prompt: So what's the measured MIC for this one? `Cc1ncc([N+](=O)[O-])n1CCO`
Completion: 0.78

Prompt: Now the same for `CC1(C)S[C@@H]2[C@H](NC(=O)[C@H](N)c3ccc(O)cc3)C(=O)N2[C@H]1C(=O)O`
Completion: 0.39

The reported measurements were obtained from patent US20040116493A1.
